# reported inhibition at 40 ppm; entries follow
system: Pythium ultimum; assay: Mycelial growth test; type: cell-based; details: Globisporangium ultimum, 72 h, PU, 40 ppm, read-out: Percent Fungus Growth Inhibition
Write the answer as a number in %, unit excluded.

O=c1c(Cl)nsnc1Oc1cccc(Cl)c1Cl :: 100
Cc1ccc(Oc2nsnc(Cl)c2=O)c(C)c1 :: 100
CC(=O)Nc1cccc(Oc2nsnc(Cl)c2=O)c1 :: 100
C[S+]([O-])c1ccc(Oc2nsnc(Cl)c2=O)cc1 (stereo not drawn) :: 100
O=c1c(Cl)nsnc1Oc1c(Cl)cc(Cl)cc1Cl :: 100

Req: So what does the record say about inhibition at 40 ppm for `O=C(OCc1ccccc1)Oc1ccc(Oc2nsnc(Cl)c2=O)cc1` ?
Resp: 0

---

test system: Cladosporium cucumerinum; assay: Mycelial growth test; type: cell-based; settings: Cladosporium cucumerinum, 72 h, CC, 10 ppm, read-out: Percent Fungus Growth Inhibition
readout-type: inhibition at 10 ppm (%)
Write the answer as a number in %, unit excluded.

O=c1c(Cl)nsnc1Oc1ccc([N+](=O)[O-])cc1 :: 75

Req: So what does the record say about inhibition at 10 ppm for `O=c1c(Cl)nsnc1Oc1cccc(Cl)c1` ?
Resp: 67

Req: Okay, and N#Cc1c(Cl)c(Cl)c(Cl)c(C#N)c1Cl [Chlorothalonil, reference compound] ?
Resp: 63

Req: Okay, and `O=c1c(Cl)nsnc1Oc1ccc(Cl)c(Cl)c1` ?
Resp: 54

Req: Okay, and `CCOC(=O)c1ccc(Oc2nsnc(Cl)c2=O)cc1` ?
Resp: 36

Req: Okay, and `O=C(Nc1ccccc1)Oc1ccc(Oc2nsnc(Cl)c2=O)cc1` ?
Resp: 29

Req: Okay, and C[S+]([O-])c1ccc(Oc2nsnc(Cl)c2=O)cc1 (stereo not shown) ?
Resp: 48

Req: Okay, and `Nc1ccc(Oc2nsnc(Cl)c2=O)cc1` ?
Resp: 49

Req: Okay, and `Cc1cc(Oc2nsnc(Cl)c2=O)ccc1Cl` ?
Resp: 28

Req: Okay, and `O=c1c(Cl)nsnc1Oc1cc(Cl)cc(Cl)c1` ?
Resp: 100

Req: Okay, and `Cc1cccc(Oc2nsnc(Cl)c2=O)c1` ?
Resp: 38

Req: Okay, and `O=c1c(Cl)nsnc1Oc1ccccc1` ?
Resp: 58

Req: Okay, and `O=c1c(Cl)nsnc1Oc1c(Cl)cc(Cl)cc1Cl` ?
Resp: 100

Req: Okay, and `Cc1cc(Oc2nsnc(Cl)c2=O)cc(C)c1Br` ?
Resp: 36

Req: Okay, and `N#Cc1ccc(Oc2nsnc(Cl)c2=O)cc1` ?
Resp: 45

Req: Okay, and `COc1cc(Oc2nsnc(Cl)c2=O)cc(OC)c1C(C)=O` ?
Resp: 23

Req: Okay, and `CCCCOc1ccc(Oc2nsnc(Cl)c2=O)cc1` ?
Resp: 0

Req: Okay, and `O=c1c(Cl)nsnc1Oc1ccc(Cl)cc1Cl` ?
Resp: 100

Req: Okay, and `O=c1c(Cl)nsnc1Oc1ccc([N+](=O)[O-])cc1Cl` ?
Resp: 61

Req: Okay, and `CC(=O)Nc1cccc(Oc2nsnc(Cl)c2=O)c1` ?
Resp: 22

Req: Okay, and `COc1ccc(Oc2nsnc(Cl)c2=O)cc1` ?
Resp: 75

Req: Okay, and `O=c1c(Cl)nsnc1Oc1ccc(Br)cc1` ?
Resp: 55

---

tested on: Alternaria solani; test: Mycelial growth test; format: cell-based; details: Alternaria solani, 72 h, AS, 10 ppm, read-out: Percent Fungus Growth Inhibition
# reported inhibition at 10 ppm; entries follow
Write the answer as a number in %, unit excluded.

Example entries and their recorded answers appear below.
O=C(Nc1ccccc1)Oc1ccc(Oc2nsnc(Cl)c2=O)cc1 [Compound 37] :: 50
O=c1c(Cl)nsnc1Oc1ccc([N+](=O)[O-])cc1 [Compound 9] :: 63
O=C(O)c1ccc(Oc2nsnc(Cl)c2=O)cc1 [Compound 50] :: 21
O=c1c(Cl)nsnc1Oc1ccccc1Cl [Compound 14] :: 79

Next compound, inhibition at 10 ppm to be filled in.
Req: So what does the record say about inhibition at 10 ppm for O=c1c(Cl)nsnc1Oc1c(Cl)cccc1Cl [Compound 18] ?
Resp: 90

Where do these numbers come from? They come from patent US4450269A.
